// provenance: patent US10059687B2

Biological target: JMJD2C (Homo sapiens (Human), UniProt Q9H3R0)
Sequence (Q9H3R0 2-372): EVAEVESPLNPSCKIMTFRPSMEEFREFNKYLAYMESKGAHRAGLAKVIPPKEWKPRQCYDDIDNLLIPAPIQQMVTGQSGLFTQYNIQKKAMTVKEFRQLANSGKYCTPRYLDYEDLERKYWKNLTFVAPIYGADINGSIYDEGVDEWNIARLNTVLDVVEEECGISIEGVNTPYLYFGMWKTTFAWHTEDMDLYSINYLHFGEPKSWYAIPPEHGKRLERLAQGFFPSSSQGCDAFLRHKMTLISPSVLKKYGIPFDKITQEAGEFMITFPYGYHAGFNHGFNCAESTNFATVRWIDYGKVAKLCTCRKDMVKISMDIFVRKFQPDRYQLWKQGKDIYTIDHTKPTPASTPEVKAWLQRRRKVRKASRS
Assay: In vitro enzyme inhibition assay for JMJD2C activity (TR-FRET)
Format: biochemical
Details: Table 4; cell gives A/B enantiomer values
Each item that follows carries a reported IC50.
ENDPOINT_LABEL: IC50

CC(C)c1ccc(N(C)c2ccc3c(c2)CCN[C@H]3CNc2cnccc2C(=O)O)cc1 [Example 3B]: 100 to 1000 nM
Cc1ccc(N(C)c2ccc3c(c2)CCN[C@@H]3CNc2cnccc2C(=O)O)cc1 [Example 1A]: 100 to 1000 nM
CC(C)c1ccc(N(C)c2ccc3c(c2)CN[C@@H]3CNc2cnccc2C(=O)O)cc1 [Example 6A]: 1000 to 10000 nM
Cc1cc(OCC(F)(F)F)ccc1-c1ccc2c(c1)CN[C@H]2CNc1cnccc1C(=O)O [Example 7B]: 1000 to 10000 nM
Cc1cc(OCC(F)(F)F)ccc1-c1ccc2c(c1)CCN[C@H]2CNc1cnccc1C(=O)O [Example 2B]: 1000 to 10000 nM
Cc1cc(OCC(F)(F)F)ccc1-c1ccc2c(c1)CN[C@@H]2CNc1cnccc1C(=O)O [Example 7A]: 1000 to 10000 nM
Cc1ccc(N(C)c2ccc3c(c2)CCN[C@H]3CNc2cnccc2C(=O)O)cc1 [Example 1B]: 100 to 1000 nM

---

Target: JMJD3 (Homo sapiens, UniProt O15054)
Assay: In vitro enzyme inhibition assay for JMJD3 activity (TR-FRET)
Type: biochemical
Conditions: Table 5; one class given per A and B pair
Each item that follows carries a reported IC50.
ENDPOINT_LABEL: IC50

Cc1ccccc1-c1ccc2c(c1)CCN[C@H]2CNc1cnccc1C(=O)O: 1 to 10 µM
Cc1ccccc1-c1ccc2c(c1)CN(C)[C@H]2CNc1cnccc1C(=O)O [Example 21A]: 1 to 10 µM
CCCc1ccc(N(C)c2ccc3c(c2)CCN(C)[C@H]3CNc2cnccc2C(=O)O)cc1 [Example 14A]: 1 to 10 µM

---

Molecular target: Jarid1B (Homo sapiens (Human), UniProt Q9UGL1)
Sequence (Q9UGL1 whole entry, species assumed): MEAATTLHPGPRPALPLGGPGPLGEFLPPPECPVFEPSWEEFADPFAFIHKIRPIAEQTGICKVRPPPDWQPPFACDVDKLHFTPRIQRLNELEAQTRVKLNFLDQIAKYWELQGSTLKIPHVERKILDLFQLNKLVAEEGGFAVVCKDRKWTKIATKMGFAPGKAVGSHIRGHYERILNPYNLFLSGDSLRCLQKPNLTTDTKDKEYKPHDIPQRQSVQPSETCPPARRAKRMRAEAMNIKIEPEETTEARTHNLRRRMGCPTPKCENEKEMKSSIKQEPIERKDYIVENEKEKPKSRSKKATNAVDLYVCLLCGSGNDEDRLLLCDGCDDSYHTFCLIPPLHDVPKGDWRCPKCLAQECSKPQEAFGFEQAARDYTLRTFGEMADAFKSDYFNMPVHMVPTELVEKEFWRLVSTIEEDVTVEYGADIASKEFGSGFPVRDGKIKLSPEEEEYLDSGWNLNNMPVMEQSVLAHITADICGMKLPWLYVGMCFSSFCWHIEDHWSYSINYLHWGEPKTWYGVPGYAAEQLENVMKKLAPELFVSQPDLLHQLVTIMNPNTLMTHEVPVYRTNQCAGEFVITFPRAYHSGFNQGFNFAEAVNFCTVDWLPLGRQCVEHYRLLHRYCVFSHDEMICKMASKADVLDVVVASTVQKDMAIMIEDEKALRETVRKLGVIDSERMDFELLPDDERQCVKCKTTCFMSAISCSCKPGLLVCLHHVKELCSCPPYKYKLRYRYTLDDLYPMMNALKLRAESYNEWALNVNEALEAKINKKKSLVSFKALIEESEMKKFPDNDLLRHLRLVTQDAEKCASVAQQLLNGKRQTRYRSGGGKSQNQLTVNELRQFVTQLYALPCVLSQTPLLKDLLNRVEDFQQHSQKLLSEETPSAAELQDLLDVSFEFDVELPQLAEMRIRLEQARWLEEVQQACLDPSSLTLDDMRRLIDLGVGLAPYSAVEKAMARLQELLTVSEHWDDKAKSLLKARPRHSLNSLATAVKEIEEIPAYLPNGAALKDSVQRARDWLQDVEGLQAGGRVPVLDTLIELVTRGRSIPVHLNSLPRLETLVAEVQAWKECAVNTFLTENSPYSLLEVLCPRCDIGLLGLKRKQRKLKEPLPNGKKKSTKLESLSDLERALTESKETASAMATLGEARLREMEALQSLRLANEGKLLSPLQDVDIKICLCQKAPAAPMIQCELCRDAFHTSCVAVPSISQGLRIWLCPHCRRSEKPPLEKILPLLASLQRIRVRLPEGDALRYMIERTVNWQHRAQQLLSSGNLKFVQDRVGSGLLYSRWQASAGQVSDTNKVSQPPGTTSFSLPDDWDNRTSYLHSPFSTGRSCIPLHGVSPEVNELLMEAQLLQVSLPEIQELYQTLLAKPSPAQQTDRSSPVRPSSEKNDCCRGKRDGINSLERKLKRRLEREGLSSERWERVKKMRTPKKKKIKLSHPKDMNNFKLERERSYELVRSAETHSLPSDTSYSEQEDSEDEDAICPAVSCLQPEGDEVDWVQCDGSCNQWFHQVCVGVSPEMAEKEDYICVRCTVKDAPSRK
Experiment: In vitro enzyme inhibition assay for Jarid1B activity (TR-FRET)
Format: biochemical
Details: Table 5; one class given per A and B pair
pIC50: −log10 of the molar value.
ENDPOINT_LABEL: pIC50

Cc1cccc(C)c1-c1ccc2c(c1)CCN(C)[C@@H]2CNc1cnccc1C(=O)O [Example 17B]: ≥ 7.00
CCc1ccc(N(C)c2ccc3c(c2)CCN(C)[C@H]3CNc2cnccc2C(=O)O)cc1 [Example 13A]: ≥ 7.00
CCCc1ccc(N(C)c2ccc3c(c2)CCN(C)[C@@H]3CNc2cnccc2C(=O)O)cc1 [Example 14B]: ≥ 7.00
CC(C)c1ccccc1-c1ccc2c(c1)CCN(C)[C@H]2CNc1cnccc1C(=O)O [Example 16A]: ≥ 7.00
Cc1ccc(N(C)c2ccc3c(c2)CN[C@@H]3CNc2cnccc2C(=O)O)cc1: ≥ 7.00
CCc1ccc(N(C)c2ccc3c(c2)CCN[C@@H]3CNc2cnccc2C(=O)O)cc1 [Example 10B]: ≥ 7.00
CCc1ccccc1-c1ccc2c(c1)CCN[C@H]2CNc1cnccc1C(=O)O: ≥ 7.00
Cc1ccc(N(C)c2ccc3c(c2)CCN(C)[C@@H]3CNc2cnccc2C(=O)O)cc1 [Example 11B]: ≥ 7.00
Cc1cc(OCC(F)(F)F)ccc1-c1ccc2c(c1)CN[C@H]2CNc1cnccc1C(=O)O: ≥ 7.00
Cc1ccccc1-c1ccc2c(c1)CN(C)[C@@H]2CNc1cnccc1C(=O)O [Example 21B]: ≥ 7.00
